# Test system: SEC receptor
# testDetails: Direct binding of 125I peptide 105C to HepG2 cells
# Set-up: species or system human
# conditionDetails: 125I-105C, HepG2 cells, 2 hours at 4° C.; read-out: point of half-maximal saturation
pKd: −log10 of the molar value.

substance	pKd
Phe-Val-Tyr-Leu-Ile (FVYLI) [peptide 105C]	~7.40
